Where these numbers come from: patent US20210040232A1

# target entity: T1, human CTLA-4 (amino acids M1-N223) on stably transfected VI-fibroblast cells (human, UniProt P16410 36-223)
# T1 construct: also called VI-fibroblast/hCTLA-4
# T1 sequence (P16410 36-223 limits assumed): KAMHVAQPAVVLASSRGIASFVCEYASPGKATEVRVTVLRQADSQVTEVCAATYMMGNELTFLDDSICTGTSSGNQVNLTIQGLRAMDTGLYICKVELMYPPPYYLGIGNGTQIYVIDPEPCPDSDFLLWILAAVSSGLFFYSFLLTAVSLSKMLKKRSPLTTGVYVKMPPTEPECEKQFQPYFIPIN
# procedure summary: ECL cell binding, VI-fibroblast/hCTLA-4 cells;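 also: antibodies bound to the cells on carbon electrode plates, detected via SULFO-TAG anti-IgG secondary (1 h, RT), electrochemiluminescence read as RLU over a concentration range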
// reported EC50 for each item listed

| binder | EC50 |
| --- | --- |
| H1H19305P (antibody, human IgG1, V domains shown) VH: QVQLQESGPGLVKPSQTLSLTCTVSGGSITSGGYYWSWIRQHPGKGLEWIGYIFYSGITNYNPSLKSRVTISVDTSKNQFSLKLTSVTAADTAVYYCATYNSLRLYYGMDVWGQGTTVTVSS VL: DVVMTQSPLSLPVILGQPASISCRSSQSLVYGDGNTYLNWFQQRPGQSPRRLIYKVSNRDSGVPDRFSGSGSGTDFTLKISRVEAEDVGVYYCMQSTHWPLTFGGGTKVEIK | 0.84 nM |
| H1H19280P (antibody, human IgG1, V domains shown) VH: QLQLQESGPGLVKPSETLSLTCIVSGGSTSSNTYYWGWIRQPPGKGLEWIGTIHYSGNPYYDPSLKSRVTISVDTSKNHFSLKLNSVTAADTAVYYCTRQYINFFDFWGQGTLVTVSS VL: EIVLTQSPATLSLSPGERVTLSCRASQSISRYLAWYQQKPGQAPRVLIYDASNRATDIPARFSGSGSGTDFTLTISSLEPEDFAVYYCQQRSNWPITFGQGTRLEIK | 1.3 nM |
| H2M20373N (antibody, mouse IgG2, V domains shown, hybridoma antibody, human variable domains, mouse IgG2 Fc (H2M)) VH: EVQLLESGGGLVQPGGSLRLSCAASGFTFSSYAMSWVRQAPGKGLEWVSDISGSGLSTYYADSVKGRFAISRDNSKNMLYLQMNRLRAEDTAVYYCAKEPSHWNGEAFDIWGQGTMVTVSS VL: DIQMTQSPSSVSASVGDRVTITCRASQDISSWLAWYQQKPGKAPKLLIYTTANLQSGVPSRFSGSGSGTDFTLTISSLQSEDFATYYCQQANSFPFTFGSGTKVDIK | 0.062 nM |
